Data provenance is paper PMC9486541.

tested on: MCF-7; experiment: MTT assay, MCF-7 cells; format: cell-based, human; settings: Homo sapiens, MCF7, 72 h incubation, read-out: Half maximal inhibitory concentration (IC50) values, MCF-7
MEASURED PARAMETER: IC50 (µM)
Your answer is read as µM, so omit the unit and give the number.

Below are worked cases with known answers.
COMPOUND	ENDPOINT RESULT
C=C(C)[C@@H]1CC[C@]2(C(=O)OCCOC(=O)c3cnc(C)cn3)CC[C@]3(C)[C@H](CC[C@@H]4[C@@]5(C)CCC(=O)C(C)(C)[C@@H]5CC[C@]43C)[C@@H]12 [BoA2C]	3.39
C=C(C)[C@@H]1CC[C@]2(C(=O)OCc3nccnc3C)CC[C@]3(C)[C@H](CC[C@@H]4[C@@]5(C)CCC(=O)C(C)(C)[C@@H]5CC[C@]43C)[C@@H]12 [BoAB]	10

What measured IC50 goes with C=C(C)[C@@H]1CC[C@]2(C(=O)OCCCOC(=O)c3nc(C)c(C)nc3C)CC[C@]3(C)[C@H](CC[C@@H]4[C@@]5(C)CCC(=O)C(C)(C)[C@@H]5CC[C@]43C)[C@@H]12 [BoA3E] ?
29.5

What measured IC50 goes with C=C(C)[C@@H]1CC[C@]2(C(=O)OCCOC(=O)c3cncc(C)n3)CC[C@]3(C)[C@H](CC[C@@H]4[C@@]5(C)CCC(=O)C(C)(C)[C@@H]5CC[C@]43C)[C@@H]12 [BoA2D] ?
8.32

* * *

system: Bel-7402; experiment: MTT assay, Bel-7402 cells; format: cell-based, human; conditions: Homo sapiens, Bel-7402, 72 h incubation, read-out: Half maximal inhibitory concentration (IC50) values, Bel-7402
MEASURED PARAMETER: pIC50
Scale: pIC50 equals -log10([C]), with [C] in mol/L.

What measured pIC50 goes with C=C(C)[C@@H]1CC[C@]2(C(=O)OCCOC(=O)c3cnccn3)CC[C@]3(C)[C@H](CC[C@@H]4[C@@]5(C)CCC(=O)C(C)(C)[C@@H]5CC[C@]43C)[C@@H]12 [BoA2A] ?
5.06

What measured pIC50 goes with C=C(C)[C@@H]1CC[C@]2(C(=O)OCc3cnccn3)CC[C@]3(C)[C@H](CC[C@@H]4[C@@]5(C)CCC(=O)C(C)(C)[C@@H]5CC[C@]43C)[C@@H]12 [BoAA] ?
5.09

What measured pIC50 goes with C=C(C)[C@@H]1CC[C@]2(C(=O)OCCCCOC(=O)c3cnc(C)cn3)CC[C@]3(C)[C@H](CC[C@@H]4[C@@]5(C)CCC(=O)C(C)(C)[C@@H]5CC[C@]43C)[C@@H]12 [BoA4C] ?
5.26

What measured pIC50 goes with C=C(C)[C@@H]1CC[C@]2(C(=O)OCc3cnc(C)cn3)CC[C@]3(C)[C@H](CC[C@@H]4[C@@]5(C)CCC(=O)C(C)(C)[C@@H]5CC[C@]43C)[C@@H]12 [BoAC] ?
5.08

* * *

MEASURED PARAMETER: melting point

COMPOUND STRING	melting point
C=C(C)[C@@H]1CC[C@]2(C(=O)OCCCOC(=O)c3nccnc3C)CC[C@]3(C)[C@H](CC[C@@H]4[C@@]5(C)CCC(=O)C(C)(C)[C@@H]5CC[C@]43C)[C@@H]12	54 to 55 °C
C=C(C)[C@@H]1CC[C@]2(C(=O)OCCCOC(=O)c3ccncn3)CC[C@]3(C)[C@H](CC[C@@H]4[C@@]5(C)CCC(=O)C(C)(C)[C@@H]5CC[C@]43C)[C@@H]12	50 to 52 °C
C=C(C)[C@@H]1CC[C@]2(C(=O)OCc3nccnc3C)CC[C@]3(C)[C@H](CC[C@@H]4[C@@]5(C)CCC(=O)C(C)(C)[C@@H]5CC[C@]43C)[C@@H]12	80 to 82 °C
C=C(C)[C@@H]1CC[C@]2(C(=O)OCCCOC(=O)c3ccnnc3)CC[C@]3(C)[C@H](CC[C@@H]4[C@@]5(C)CCC(=O)C(C)(C)[C@@H]5CC[C@]43C)[C@@H]12	68 to 71 °C
C=C(C)[C@@H]1CC[C@]2(C(=O)OCCOC(=O)c3ccnnc3)CC[C@]3(C)[C@H](CC[C@@H]4[C@@]5(C)CCC(=O)C(C)(C)[C@@H]5CC[C@]43C)[C@@H]12	130 to 132 °C
C=C(C)[C@@H]1CC[C@]2(C(=O)OCc3cnc(C)cn3)CC[C@]3(C)[C@H](CC[C@@H]4[C@@]5(C)CCC(=O)C(C)(C)[C@@H]5CC[C@]43C)[C@@H]12	125 to 127 °C
C=C(C)[C@@H]1CC[C@]2(C(=O)OCc3cncc(C)n3)CC[C@]3(C)[C@H](CC[C@@H]4[C@@]5(C)CCC(=O)C(C)(C)[C@@H]5CC[C@]43C)[C@@H]12	119 to 121 °C
C=C(C)[C@@H]1CC[C@]2(C(=O)OCCCCOC(=O)c3nc(C)c(C)nc3C)CC[C@]3(C)[C@H](CC[C@@H]4[C@@]5(C)CCC(=O)C(C)(C)[C@@H]5CC[C@]43C)[C@@H]12	124 to 126 °C

What measured melting point goes with C=C(C)[C@@H]1CC[C@]2(C(=O)OCCCOC(=O)c3cnc(C)cn3)CC[C@]3(C)[C@H](CC[C@@H]4[C@@]5(C)CCC(=O)C(C)(C)[C@@H]5CC[C@]43C)[C@@H]12 ?
57 to 58 °C

What measured melting point goes with C=C(C)[C@@H]1CC[C@]2(C(=O)OCCCCOC(=O)c3cnccn3)CC[C@]3(C)[C@H](CC[C@@H]4[C@@]5(C)CCC(=O)C(C)(C)[C@@H]5CC[C@]43C)[C@@H]12 ?
69 to 71 °C

What measured melting point goes with C=C(C)[C@@H]1CC[C@]2(C(=O)OCCCOC(=O)c3nc(C)c(C)nc3C)CC[C@]3(C)[C@H](CC[C@@H]4[C@@]5(C)CCC(=O)C(C)(C)[C@@H]5CC[C@]43C)[C@@H]12 ?
57 to 59 °C

What measured melting point goes with C=C(C)[C@@H]1CC[C@]2(C(=O)OCCCCOC(=O)c3nccnc3C)CC[C@]3(C)[C@H](CC[C@@H]4[C@@]5(C)CCC(=O)C(C)(C)[C@@H]5CC[C@]43C)[C@@H]12 ?
54 to 55 °C

What measured melting point goes with C=C(C)[C@@H]1CC[C@]2(C(=O)OCCOC(=O)c3cnccn3)CC[C@]3(C)[C@H](CC[C@@H]4[C@@]5(C)CCC(=O)C(C)(C)[C@@H]5CC[C@]43C)[C@@H]12 ?
85 to 87 °C
